# assayDetails: Solubility in water
# Assay type: physicochemical
assayReadout: solubility (µM)

I. Oc1cc(O)cc(/C=C/c2ccc(OCCCC[P+](c3ccccc3)(c3ccccc3)c3ccccc3)cc2)c1.[I-]
II. CC(=O)Oc1cc(/C=C/c2ccc(OCCCC[P+](c3ccccc3)(c3ccccc3)c3ccccc3)cc2)cc(OC(C)=O)c1.[I-]
Which item exceeds the other in solubility, I or II ? // caller expects the label of the chosen entry
II
